Data provenance is paper PMC4823785.

Target: ACE (Oryctolagus cuniculus, UniProt P12822)
Construct: ACE was prepared using fresh rabbit lungs according to the protocol reported by Hayakari et al; from tissue; host or cells: fresh rabbit lungs (supernatant of homogenate)
Sequence (P12822 34-1310): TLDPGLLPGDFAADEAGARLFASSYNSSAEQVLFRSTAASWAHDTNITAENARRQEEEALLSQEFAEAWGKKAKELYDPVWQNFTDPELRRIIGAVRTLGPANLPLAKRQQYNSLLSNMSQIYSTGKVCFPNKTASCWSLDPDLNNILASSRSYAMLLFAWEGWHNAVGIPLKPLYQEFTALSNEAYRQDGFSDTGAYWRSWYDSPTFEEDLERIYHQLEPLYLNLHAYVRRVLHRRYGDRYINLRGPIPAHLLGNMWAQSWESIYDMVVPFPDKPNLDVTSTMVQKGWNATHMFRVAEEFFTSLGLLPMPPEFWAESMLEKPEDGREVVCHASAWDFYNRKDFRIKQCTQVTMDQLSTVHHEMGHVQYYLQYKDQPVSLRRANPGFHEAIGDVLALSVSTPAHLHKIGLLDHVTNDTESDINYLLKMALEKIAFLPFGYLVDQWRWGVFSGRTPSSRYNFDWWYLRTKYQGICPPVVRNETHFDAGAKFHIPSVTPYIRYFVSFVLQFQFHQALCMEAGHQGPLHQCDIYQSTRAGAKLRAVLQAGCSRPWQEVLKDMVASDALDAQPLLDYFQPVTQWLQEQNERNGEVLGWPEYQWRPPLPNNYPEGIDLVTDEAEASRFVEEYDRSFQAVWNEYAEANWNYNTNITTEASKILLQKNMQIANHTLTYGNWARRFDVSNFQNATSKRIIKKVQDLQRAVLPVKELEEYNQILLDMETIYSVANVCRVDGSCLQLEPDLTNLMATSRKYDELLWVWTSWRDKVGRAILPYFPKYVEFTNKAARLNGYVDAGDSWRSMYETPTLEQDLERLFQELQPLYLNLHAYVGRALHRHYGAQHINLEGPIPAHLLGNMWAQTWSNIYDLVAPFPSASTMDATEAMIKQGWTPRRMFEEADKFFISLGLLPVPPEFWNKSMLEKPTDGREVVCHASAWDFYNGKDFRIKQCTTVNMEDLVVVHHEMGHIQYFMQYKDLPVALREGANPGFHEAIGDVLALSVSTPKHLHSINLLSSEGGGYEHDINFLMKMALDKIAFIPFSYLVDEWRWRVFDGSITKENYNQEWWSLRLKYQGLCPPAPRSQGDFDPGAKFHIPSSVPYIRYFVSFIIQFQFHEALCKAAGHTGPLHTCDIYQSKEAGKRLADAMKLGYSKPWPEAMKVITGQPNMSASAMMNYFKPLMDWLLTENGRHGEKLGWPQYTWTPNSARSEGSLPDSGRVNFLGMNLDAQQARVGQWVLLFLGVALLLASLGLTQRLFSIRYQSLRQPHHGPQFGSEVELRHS
Test: Assay of ACE inhibitory activity (spectrophotometric, HHL substrate)
Type: biochemical, rabbit
Conditions: chemically synthesized peptides; means ± S.D. of three determinations
pIC50: −log10 of the molar value. Where no end group is shown, it is not given here.
# binarize pIC50: threshold 6 inclusive, high side Satisfied, low side Not satisfied

Solved entries (count: 2):
{"Substance": "LIDKVVK [LIDKVVK]", "Class label": "Satisfied"}
{"Substance": "WALKGYK [TMP, WALKGYK]", "Class label": "Satisfied"}

Below: the item to evaluate.
Say whether ILSKLK [ILSKLK] shows pIC50 of 6 or more.
Not satisfied
